test: Ratio of drug concentration in brain to plasma in Sprague-Dawley rat at 1 mg/kg, po measured after 0.25 hrs by LC-MS/MS analysis; format: ADME, organism-based; details: read-out: BPR
measured attribute: Kp at 0.25 h
Reply with just the number.

Entry `O=S1(=O)NCc2cccc(-c3ccc(-c4ccccc4F)cc3)c2O1` needs its Kp at 0.25 h filled in; supply it.
0.59

----------
assay: Ratio of drug concentration in brain to plasma in Sprague-Dawley rat at 1 mg/kg, po measured after 24 hrs by LC-MS/MS analysis; assay type: ADME, organism-based; conditions: read-out: BPR
measured attribute: Kp at 24 h
Reply with just the number.

Entry `O=S1(=O)NCc2cccc(-c3ccc(-c4ccccc4F)cc3)c2O1` needs its Kp at 24 h filled in; supply it.
1.48

----------
biological target: Glutamate receptor ionotropic, AMPA (Rattus norvegicus) (UniProt P19491+P19492+P19493+P19490); experiment: Agonist activity at AMPA receptor in rat Primary neuron cells assessed as potentiation of s-AMPA induced calcium flux at 1 uM incubated for 1 hr by calcium 2+ influx assay relative to s-AMPA coupled TAK-137; assay type: cell-based; conditions: filed as agonist
Returns MET if the recorded Activity is greater than or equal to 60%, and NOT MET otherwise.

compound: O=S1(=O)NCc2cccc(-c3ccc(F)cc3)c2O1
group label: NOT MET
//
compound: CC1NS(=O)(=O)Oc2c(-c3ccc(-c4cccc(F)c4)cc3)cccc21 (stereo unspecified)
group label: MET
//
compound: COc1ccccc1-c1ccc(-c2cccc3c2OS(=O)(=O)NC3)cc1
group label: MET
//
compound: COc1ccc(-c2ccc(-c3cccc4c3OS(=O)(=O)NC4C)cc2)cc1 (stereo unspecified)
group label: NOT MET
//
compound: COc1ccccc1-c1ccc(-c2cccc3c2OS(=O)(=O)NC3C)cc1 (stereo unspecified)
group label: MET
//
compound: Cc1ccc(-c2ccc(-c3cccc4c3OS(=O)(=O)NC4)c(F)c2)cc1
group label: NOT MET

Dear colleague, could you confirm whether `Cc1ccc(-c2cccc3c2OS(=O)(=O)NC3)cc1` has Activity at or above 60%?
MET

Dear colleague, could you confirm whether `COc1ccc(-c2ccc(-c3cccc4c3OS(=O)(=O)NC4)cc2)cc1` has Activity at or above 60%?
MET

Dear colleague, could you confirm whether `COc1ccc(-c2cccc3c2OS(=O)(=O)NC3)cc1` has Activity at or above 60%?
MET

Dear colleague, could you confirm whether `COc1ccc(-c2ccc(-c3cccc4c3OS(=O)(=O)NC4)c(F)c2)cc1` has Activity at or above 60%?
MET
